Recorded Drug concentration (M) values for a group of compounds are listed next.
Assay: Encapsulated drug concentration and encapsulation efficiency (EE) in Cit-X-CPSNPs by LC-MS/MS
Assay type: physicochemical
Conditions: citrate-functionalized CPSNPs; weighted mean ± 95% confidence interval, n = 4-6 replicates

{"COMPOUND": "Nc1ccn([C@@H]2O[C@H](CO)[C@@H](O)C2(F)F)c(=O)n1 [Gem, 2′,2′-difluorodeoxycytidine]", "Drug concentration (M)": "1.9 (±0.6)×10^−9 M"}
{"COMPOUND": "O=c1[nH]c(=O)n([C@H]2C[C@H](O)[C@@H](CO)O2)cc1F [FUdR, 5-fluoro-2′-deoxyuridine]", "Drug concentration (M)": "2.8 (±1.2)×10^−8 M"}
{"COMPOUND": "O=c1[nH]c(=O)n([C@H]2C[C@H](O)[C@@H](COP(=O)(O)O)O2)cc1F [FdUMP]", "Drug concentration (M)": "3.0 (±1.4)×10^−4 M"}

If you can, please state the reported Drug concentration (M) value of O=c1[nH]cc(F)c(=O)[nH]1 [Formulation 5FU, 5-fluorouracil] .
4.1 (±1.8)×10^−7 M
